# protocolDescription: in vivo
# studyConditions: rat, iv, 10 mg/kg
metricName: AUC

Problem: Returns the measured AUC for the input compound. Input: O=C1C=CN(c2c(F)cc(N3C[C@H](CNc4ccon4)OC3=O)c(F)c2F)CC1
Solution: ~25400 ng·h/mL
